Parameter Mean relative activity: see the listing below.
# Tested on: K562 CRISPRi cells
# EXPERIMENTAL DETAILS: Constant region variant library pooled growth screen, K562
# Assay type: cell-based, human
# STATED CONDITIONS: sgRNA constant region variants; relative to the original, un-modified constant region cr995 (= 1)
Write the number on its own, no unit after it.

QUERY: What value of Mean relative activity has been recorded for this entry: cr603 (nucleic acid, listed as DNA, chemistry not fully specified) guide: GTTTAAGAGCTAAGCTGGAAACAGCATAGCAAGTTTAAATAAGGCTAGTCCGTTATCAACTTGAGCAAGTGGCACCGAGTCGGTGCT
RESULT: 1.018

QUERY: What value of Mean relative activity has been recorded for this entry: cr348 (nucleic acid, listed as DNA, chemistry not fully specified) guide: GTTTAAGAGCTAAGCTGGAAGCAGCATAGCAAGTTTAAATAAGGCTAGTCCGTTATCAACTTGAAAAAGTGGCACCGAGTCGGTGCT
RESULT: 1.008

QUERY: What value of Mean relative activity has been recorded for this entry: cr771 (nucleic acid, listed as DNA, chemistry not fully specified) guide: GTTTAAGAGCTAAGCTGGAAACAGCATAGCAAGTTTAAATAAGGCTAGTCCGTTATCAACTTGAGAAAGTGCCACCGAGTCGGTGGT
RESULT: 1.007

Let's switch to this molecule now.
QUERY: What value of Mean relative activity has been recorded for this entry: cr670 (nucleic acid, listed as DNA, chemistry not fully specified) guide: GTTTAAGAGCTAAGCTGGAAACAGCATAGCAAGTTTAAATAAGGCTAGTCCGTTATCAACTTGAAAAAGGGGCACCGAGTCGGTGCT
RESULT: 0.9903
